testedTarget: BCL-2 binding to biotinylated BAD peptide (Homo sapiens (Human))
Sequence (P10415 whole entry): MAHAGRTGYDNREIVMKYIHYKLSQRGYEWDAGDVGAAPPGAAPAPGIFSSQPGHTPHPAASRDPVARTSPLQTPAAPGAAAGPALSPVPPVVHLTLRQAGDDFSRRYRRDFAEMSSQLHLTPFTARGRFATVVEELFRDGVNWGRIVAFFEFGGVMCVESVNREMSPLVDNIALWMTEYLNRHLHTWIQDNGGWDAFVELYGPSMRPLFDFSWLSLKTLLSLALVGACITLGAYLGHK
methodSummary: SPR (Biacore) solution inhibition assay, BCL-2 binding to BAD peptide surface
conditionNotes: high and low IC50 values from multiple experiments; 56 nM BCL-2, BAD peptide sensor surface, 25° C.; read-out: BCL2_SPR IC50 BAD
pIC50: −log10 of the molar value.

[
  {
    "givenSmiles": "CCCCN(CCCC)C(=O)c1cc(C)n(-c2ccc(NS(=O)(=O)c3ccc(NC(C)=O)c(Cl)c3)cc2C(=O)N2Cc3ccccc3C[C@H]2CO)n1",
    "testedTarget": "BCL-2 binding to biotinylated BAD peptide (Homo sapiens (Human))",
    "pIC50": "6.36 to 6.38"
  },
  {
    "givenSmiles": "CCCCN(CCCC)C(=O)c1cc(C)n(-c2ccc(NS(=O)(=O)c3ccc(Oc4ccccc4C)cc3)cc2C(=O)N2Cc3ccccc3C[C@H]2CO)n1",
    "testedTarget": "BCL-2 binding to biotinylated BAD peptide (Homo sapiens (Human))",
    "pIC50": "< 4.80"
  },
  {
    "givenSmiles": "CCCCN(CCCC)C(=O)c1cc(C)n(-c2ccc(NS(=O)(=O)c3ccc(-c4ccc(Cl)cc4)cc3)cc2C(=O)N2Cc3ccccc3C[C@H]2CO)n1",
    "testedTarget": "BCL-2 binding to biotinylated BAD peptide (Homo sapiens (Human))",
    "pIC50": "< 4.80"
  }
]

Every entry's value here was drawn from patent US9126980B2.
